molecular target: 5-hydroxytryptamine receptor 2A (Rattus norvegicus)
Sequence (P14842 whole entry): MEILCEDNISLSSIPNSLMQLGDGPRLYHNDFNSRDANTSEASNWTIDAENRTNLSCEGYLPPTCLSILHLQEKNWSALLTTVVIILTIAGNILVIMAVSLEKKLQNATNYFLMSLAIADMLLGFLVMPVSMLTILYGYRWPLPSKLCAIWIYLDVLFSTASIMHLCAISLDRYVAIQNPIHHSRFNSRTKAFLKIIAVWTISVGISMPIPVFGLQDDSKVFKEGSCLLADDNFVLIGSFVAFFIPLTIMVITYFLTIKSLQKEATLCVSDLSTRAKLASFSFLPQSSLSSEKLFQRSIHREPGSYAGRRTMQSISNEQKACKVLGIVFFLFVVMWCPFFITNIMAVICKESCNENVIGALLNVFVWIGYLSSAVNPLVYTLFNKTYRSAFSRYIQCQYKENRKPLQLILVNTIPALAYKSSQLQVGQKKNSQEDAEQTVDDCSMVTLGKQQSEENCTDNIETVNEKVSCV
Define the label as 1.0 when Ki is strictly less than 1000 nM and as 0.0 in all remaining cases.

{"Molecule": "C=CCc1ccccc1OC[C@@H](O)CNC(C)C [ALPRENOLOL,(-)]", "Discrete label": 0.0}
{"Molecule": "c1ccc2c(c1)CCC2CCN1CCN(c2cccc3c2OCCO3)CC1 (configuration not stated)", "Discrete label": 1.0}
{"Molecule": "COc1ccccc1N1CCN(CCCCN2C(=O)c3ccccc3C2=O)CC1", "Discrete label": 1.0}
{"Molecule": "c1cc2c(c(N3CCNCC3)c1)OCCO2", "Discrete label": 0.0}
{"Molecule": "CC(C)(C)NCC(O)COc1cccc2c1SCCC2 (single isomer, unassigned; (-)) [TERTATOLOL(-)]", "Discrete label": 0.0}
{"Molecule": "c1ccc2c(c1)CC2CCN1CCN(c2cccc3c2OCCO3)CC1 (configuration not stated)", "Discrete label": 1.0}
{"Molecule": "COc1ccccc1N1CCN(C[C@@H](C(=O)NC(C)(C)C)c2ccccc2)CC1", "Discrete label": 0.0}

----------
target: 5-hydroxytryptamine receptor 1A (Rattus norvegicus)
Sequence (P19327 whole entry): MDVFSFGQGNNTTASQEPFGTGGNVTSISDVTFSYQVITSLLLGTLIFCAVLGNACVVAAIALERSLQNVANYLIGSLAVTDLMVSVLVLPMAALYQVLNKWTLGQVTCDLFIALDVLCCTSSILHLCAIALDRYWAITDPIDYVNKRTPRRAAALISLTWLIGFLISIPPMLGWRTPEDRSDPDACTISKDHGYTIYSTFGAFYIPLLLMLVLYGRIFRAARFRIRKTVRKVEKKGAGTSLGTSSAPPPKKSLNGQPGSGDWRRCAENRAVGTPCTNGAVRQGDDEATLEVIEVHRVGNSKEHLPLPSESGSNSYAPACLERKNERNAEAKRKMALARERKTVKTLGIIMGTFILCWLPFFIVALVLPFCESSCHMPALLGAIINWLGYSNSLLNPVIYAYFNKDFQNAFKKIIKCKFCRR
pKi: −log10 of the molar value.
Where pKi equals or exceeds 8, the correct label is 1; where it does not, the label is 0.

{"Compound smiles": "O=C(CCCN1CCC2(CC1)C(=O)NCN2c1ccccc1)c1ccc(F)cc1", "Discrete label": 0}
{"Compound smiles": "COC(=O)c1cc2c(N3CCN(CCCCN4C(=O)c5ccccc5S4(=O)=O)CC3)cccc2[nH]1", "Discrete label": 1}
{"Compound smiles": "COc1ccccc1N1CCN(C[C@@H](C(=O)NC(C)(C)C)c2ccccc2)CC1", "Discrete label": 0}

----------
Form: system (5-hydroxytryptamine receptor 3A (Rattus norvegicus)), quantity (Ki), values below.
Endpoint name: Ki (µM)

{"Molecule": "c1cc2c(c(N3CCNCC3)c1)OCCO2", "Units text": "µM", "Data value": 1}
{"Molecule": "COc1ccccc1N1CCN(C[C@@H](C(=O)NC(C)(C)C)c2ccccc2)CC1", "Units text": "µM", "Data value": 1}
{"Molecule": "CC(C)(C)NCC(O)COc1cccc2c1SCCC2 (single isomer, unassigned; (-)) [TERTATOLOL(-)]", "Units text": "µM", "Data value": 1}
{"Molecule": "c1ccc2c(c1)CCC2CCN1CCN(c2cccc3c2OCCO3)CC1 (centres undefined)", "Units text": "µM", "Data value": 0.0537}

----------
Biological target: UniProt:G7ZKZ7
Sequence (G7ZKZ7 whole entry): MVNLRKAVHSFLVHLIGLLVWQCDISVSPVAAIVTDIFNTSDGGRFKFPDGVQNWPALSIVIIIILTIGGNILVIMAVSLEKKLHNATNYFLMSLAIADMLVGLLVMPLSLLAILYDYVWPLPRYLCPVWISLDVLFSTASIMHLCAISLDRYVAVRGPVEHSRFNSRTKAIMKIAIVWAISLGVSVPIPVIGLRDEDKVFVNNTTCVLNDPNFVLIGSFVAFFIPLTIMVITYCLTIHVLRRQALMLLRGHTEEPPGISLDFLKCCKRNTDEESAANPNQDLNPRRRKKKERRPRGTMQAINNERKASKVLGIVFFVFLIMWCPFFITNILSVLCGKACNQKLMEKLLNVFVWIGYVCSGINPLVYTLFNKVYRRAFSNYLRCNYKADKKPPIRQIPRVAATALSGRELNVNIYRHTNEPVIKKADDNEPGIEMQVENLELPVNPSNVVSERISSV

{"Molecule": "CC(C)(C)NCC(O)COc1cccc2c1SCCC2 (single isomer, unassigned; (-)) [TERTATOLOL(-)]", "Ki [nM]": 363}
{"Molecule": "c1cc2c(c(N3CCNCC3)c1)OCCO2", "Ki [nM]": 170}
{"Molecule": "C=CCc1ccccc1OC[C@@H](O)CNC(C)C [ALPRENOLOL,(-)]", "Ki [nM]": 4470}
{"Molecule": "O=C1CC2(CCCC2)CC(=O)N1CCNCC1COc2ccccc2O1 (stereo not given)", "Ki [nM]": 427}
{"Molecule": "O=C(CCCN1CCC2(CC1)C(=O)NCN2c1ccccc1)c1ccc(F)cc1", "Ki [nM]": 977}

----------
The following compounds have recorded Ki on UniProtKB P28564.
Sequence (P28564 whole entry): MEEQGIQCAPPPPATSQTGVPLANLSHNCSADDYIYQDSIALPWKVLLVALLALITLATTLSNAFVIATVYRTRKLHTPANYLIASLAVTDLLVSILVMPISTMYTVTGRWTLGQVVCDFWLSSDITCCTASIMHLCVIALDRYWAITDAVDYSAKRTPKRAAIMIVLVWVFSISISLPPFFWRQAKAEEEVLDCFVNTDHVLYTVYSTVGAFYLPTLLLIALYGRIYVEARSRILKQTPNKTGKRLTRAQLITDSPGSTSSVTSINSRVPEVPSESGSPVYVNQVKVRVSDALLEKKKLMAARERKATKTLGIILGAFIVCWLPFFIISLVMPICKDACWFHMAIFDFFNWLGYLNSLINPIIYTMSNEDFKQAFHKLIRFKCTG

{"Compound": "COc1ccccc1N1CCN(CCN2C(=O)CC3(CCCC3)CC2=O)CC1", "Units text": "nM", "Measurement qualifier": ">", "Ki": 10000}
{"Compound": "O=C(CCCN1CCC2(CC1)C(=O)NCN2c1ccccc1)c1ccc(F)cc1", "Units text": "nM", "Measurement qualifier": ">", "Ki": 10000}
{"Compound": "O=C1CC2(CCCC2)CC(=O)N1CCNCC1COc2ccccc2O1 (centres undefined) [CAS_124756-23-6]", "Units text": "nM", "Measurement qualifier": "=", "Ki": 4570}
{"Compound": "CC(C)(C)NCC(O)COc1cccc2c1SCCC2 (single isomer, unassigned; (-)) [TERTATOLOL(-)]", "Units text": "nM", "Measurement qualifier": "=", "Ki": 182}
{"Compound": "C=CCc1ccccc1OC[C@@H](O)CNC(C)C [ALPRENOLOL,(-)]", "Units text": "nM", "Measurement qualifier": "=", "Ki": 100}
{"Compound": "COc1ccccc1N1CCN(CCCCN2C(=O)c3ccccc3C2=O)CC1", "Units text": "nM", "Measurement qualifier": "=", "Ki": 1070}
{"Compound": "c1cc2c(c(N3CCNCC3)c1)OCCO2", "Units text": "nM", "Measurement qualifier": "=", "Ki": 53.7}
{"Compound": "c1ccc2c(c1)CC2CCN1CCN(c2cccc3c2OCCO3)CC1 (centres undefined) [NSC_182595]", "Units text": "nM", "Measurement qualifier": "=", "Ki": 603}
{"Compound": "COc1ccccc1N1CCN(C[C@@H](C(=O)NC(C)(C)C)c2ccccc2)CC1 [WAY 100135]", "Units text": "nM", "Measurement qualifier": ">", "Ki": 10000}
